Test system: DeltatarO mutant
Procedure text: S. aureus survival, RN4220 and DeltatarO strains – OD600, teichoic acid synthesis inhibitors, primary screen (AID 463173)
Measurement context: S. aureus RN4220 wild type/DeltatarO growth, OD600, 18 h, stronger effect = lower value, screened at 18.75 µg/mL (by protocol)
Among all 52,000 compounds or so, about 4,300 (8.3%) were called active. The full list was thinned out, with actives kept by preference.
Metric name: survival (%)
Note: unit % is implicit; provide only the numeric part.

Quick check: survival of `CNC(=O)Cc1nc2ccccc2[nH]1` ?
87

Quick check: survival of `O=C(Nc1c2c(nn1-c1ccc(Cl)cc1)CS(=O)(=O)C2)c1ccc(Br)cc1` ?
52

Quick check: survival of `CCCC(CCC)C(=O)Nc1nnc2n1CCS2` ?
82

Quick check: survival of `Cc1cc(C)c2oc(C(=O)Nc3nc4ccc(Cl)cc4s3)cc(=O)c2c1` ?
61

Quick check: survival of `O=C(CN1CCN(Cc2ccccc2Cl)C1=O)NCCc1ccc(Cl)cc1` ?
49

Quick check: survival of `CCc1ccccc1NC(=O)Cn1c(=O)n(CCCS(=O)(=O)C2CCCCC2)c(=O)c2ccccc21` ?
86

Quick check: survival of `CC(C)CCn1c(=O)c2sccc2n2c(CCCC(=O)NC(C)C)nnc12` ?
96

Quick check: survival of COc1ccccc1C(OC(=O)c1ccco1)C(=O)NCC1CCCO1 (configuration not stated) ?
85

Quick check: survival of Cc1[nH]c2ccccc2c1C1N2CC3(C)CN1CC(C)(C2)C3=O (configuration not stated) ?
77

Quick check: survival of `Cc1ccc(-n2c(=O)c3sccc3n(Cc3cc(=O)n4ccccc4n3)c2=O)cc1` ?
63

Quick check: survival of `COc1ccc2nc(NC(=O)c3cc(=O)c4cc(C)c(C)cc4o3)sc2c1` ?
58

Quick check: survival of `O=C(Nc1c2c(nn1-c1ccc(Cl)cc1)CS(=O)(=O)C2)c1cccc(Cl)c1` ?
71

Quick check: survival of `CCCCNC(=O)CCCn1c(=O)c2ccccc2n(Cc2c(C)cc(C)cc2C)c1=O` ?
90

Quick check: survival of `CCN(CC)C(=O)c1sc2c(c1C)c(=O)n(-c1ccccc1)c(=O)n2Cc1cc(=O)n2ccccc2n1` ?
47

Quick check: survival of CCOC(=O)C1CCCN(C(=O)c2ccc3c(c2)N(Cc2cccc(Cl)c2)C(=O)c2ccccc2S3(=O)=O)C1 (configuration not stated) ?
64

Quick check: survival of `Cc1ccc2c(=O)cc(C(=O)Nc3nc4ccc(Cl)cc4s3)oc2c1C` ?
39

Quick check: survival of `O=C(O)CNCc1nc2ccccc2[nH]1` ?
95

Quick check: survival of `CCOc1ccc2nc(NC(=O)c3nc(SC)ncc3Cl)sc2c1` ?
95

Quick check: survival of `CCc1ccccc1NC(=O)C1=C(C)C(=O)OC12CCCCCC2` ?
58

Quick check: survival of `COc1ccc2nc(NC(=O)c3cc(=O)c4cc(C)cc(C)c4o3)sc2c1` ?
69

Quick check: survival of `O=c1c2sccc2n(Cc2cc(=O)n3ccccc3n2)c(=O)n1-c1cc(F)ccc1F` ?
69

Quick check: survival of `Nc1n[nH]c2c1C1(CCCC1)Cc1ccccc1-2` ?
100

---

Tested on: DeltatarO mutant
Procedure text: S. aureus survival, RN4220 and DeltatarO strains – OD600, teichoic acid synthesis inhibitors, primary screen (AID 463173)
Measurement context: S. aureus RN4220 wild type/DeltatarO growth, OD600, 18 h, screened at 18.75 µg/mL (by protocol)
Out of some 52,000 compounds screened, about 4,300 (8.3%) were called active. Rule as the data show it: active = survival mostly below about 52% (no sharp cut-off); inactive = mostly above about 56%. This excerpt belongs to a sample that is enriched for actives.
Log the outcome using a class from active, inactive

Per the records of this test, what outcome belongs to O=C(CC(NCc1ccccc1)C(=O)O)NC1CCCCC1 (stereo not given) ?
inactive

Per the records of this test, what outcome belongs to `CN(C(=O)c1nn(C)c2c1CS(=O)(=O)c1ccccc1-2)c1cccc(Cl)c1` ?
inactive

Per the records of this test, what outcome belongs to CCOc1cc(C2c3c(oc4cc(C)cc(C)c4c3=O)C(=O)N2CCO)ccc1O (stereo not given) ?
inactive

Per the records of this test, what outcome belongs to CCOC(=O)c1c(NC(=O)c2ccccc2OCC)sc2c1CCC(CC)C2 (stereo not given) ?
active

Per the records of this test, what outcome belongs to CCOC(=O)c1c(NC(=O)c2ccc(F)cc2)sc2c1CCC(CC)C2 (stereo not given) ?
active

Per the records of this test, what outcome belongs to `Cc1ccc(S(=O)(=O)N(CC(=O)NCCSc2ccc(Cl)cc2)c2ccccc2C)cc1` ?
inactive

Per the records of this test, what outcome belongs to `O=C(Nc1c(C(=O)N2CCN(c3ccccc3F)CC2)oc2ccccc12)c1ccccc1F` ?
inactive

Per the records of this test, what outcome belongs to CCOC(=O)c1c(NC(=O)COc2cccc(C)c2C)sc2c1CCC(CC)C2 (stereo not given) ?
inactive

Per the records of this test, what outcome belongs to `Cc1ccc(S(=O)(=O)N(CC(=O)NCCSc2ccc(Cl)cc2)c2cccc(Cl)c2)cc1` ?
inactive

Per the records of this test, what outcome belongs to CCOC(=O)c1ccc(NC(=O)c2c(NC(C)=O)sc3c2CCC(C)C3)cc1 (stereo not given) ?
inactive
